target: sigma receptor (Cavia porcellus, UniProt Q60492)
Sequence (Q60492 whole entry): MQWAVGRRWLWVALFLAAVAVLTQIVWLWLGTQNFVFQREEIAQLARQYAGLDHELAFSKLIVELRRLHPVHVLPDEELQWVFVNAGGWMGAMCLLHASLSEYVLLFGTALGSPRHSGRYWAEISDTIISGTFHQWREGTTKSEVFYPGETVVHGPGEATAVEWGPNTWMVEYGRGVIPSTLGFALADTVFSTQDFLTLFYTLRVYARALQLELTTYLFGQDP
pKi: −log10 of the molar value. Structures can show the parent of a compound that is named as a salt.
Listed next: entries and their corresponding pKi.

C(=C\c1ccccc1)/COCC1CCN(Cc2cccc3ccccc23)CC1 [Example 33] :: 7.00 to 7.51
C(=C\c1ccccc1)/COCC1CCN(CCc2ccccc2)CC1 [Example 25, hydrochloride salt] :: 7.52 to 9.00
C(=C\c1ccccc1)/COC1CCN(Cc2ccccc2)CC1 [Example 31] :: 7.52 to 9.00

Would you please give the reported pKi of C(COCC1CCN(Cc2ccccc2)CC1)=C(c1ccccc1)c1ccccc1 [Example 34] with sigma receptor (Cavia porcellus, UniProt Q60492)? 7.52 to 9.00

----------
Form: system (sigma receptor (Cavia porcellus, UniProt Q60492)), quantity (pKi), values below.
pKi: −log10 of the molar value. Counter-ions that a name gives are not always drawn.

Fc1ccc(/C=C/COCC2CCN(Cc3ccccc3)CC2)cc1 [Example 22, hydrochloride salt] :: 7.52 to 9.00
C(=C\c1ccccc1)/COCC1CCCN(Cc2ccccc2)C1 (stereo not drawn) :: 7.52 to 9.00
FC(F)(F)c1ccc(/C=C/COCC2CCN(Cc3ccccc3)CC2)cc1 :: 7.52 to 9.00

Give the measured pKi for "CCCCCCN1CCC(COC/C=C/c2ccccc2)CC1" 7.52 to 9.00

Give the measured pKi for C(=C\c1ccccc1)/COCC1CCN(CCCc2ccccc2)CC1 [Example 30, hydrochloride salt] 7.52 to 9.00

Give the measured pKi for C(#Cc1ccccc1)COCCC1CCN(CCc2ccccc2)CC1 [Example 39, hydrochloride salt] 7.52 to 9.00

Give the measured pKi for "C(=C\c1ccccc1)/COCC1CCN(CC2CC2)CC1" 7.52 to 9.00

Give the measured pKi for "C(=C\c1ccccc1)/COCCC1CCN(Cc2ccccc2)CC1" 7.52 to 9.00

Give the measured pKi for C(=C\c1ccccc1)/COCC1CCN(Cc2ccccc2)CC1.Cl [Example 21, hydrochloride] 7.52 to 9.00
